# ASSAY PROCEDURE: yeast display, Sf9 membrane polyspecificity reagent, FACS + sequencing; frameworks hold sequencing errors
READOUT: polyreactivity (PSR sort gate)

Sample answers from the record:
QVQLVESGGGLVQAGGSLRLSCAASGFTFRSYVMGWYRQAPGKERELVASISSGGITKYADSVKGRFTISRDNAKNTVYLQMNSLKPEDTAVYYCNARTYSNTVLNYGLQYGYDYWGQGTQVTVSS; high polyreactivity
QVQLVESGGGLVQAGGSLRLSCAASGSIFRWYDMGWYRQAPGKERELVAVISKRGGSTYYADSVKGRFSISRDNAKNTVYLQMTSLKPEDTAVYSCAKRYERWQLARLDYWGQGTQVTVSS; high polyreactivity
QVQLVESGGGLVQAGGSLRLSCAASGSTFYVNTMGWYRQAPGKERELVATITASDGSTYADSVKGRFTISRDNAKNTVYLQMNSLKPDDTAVYYCNADTRTQGPYSAPYYREMNYWGQGTQVTVSS; low polyreactivity
QVQLVESGGGLVQAGRSLRLSCAASGYIIYPNAMGWYRQAPGKERELVAAITSGGSTTYADSVKGRFTISRDNAKNTVYVQMNCLKPEDSAVYYCAARFVLWSRTYYSWGQGTQVTVSS; high polyreactivity
QVQLVESGGGLVQAGGSLRLSCAASGYIFDIYAMGWYRQAPGKERELVAVITRSGGGTYYADSVKGRFTISRDNAKKTVYLQMNSLKPEDTAVYYCAAESYVYGGSDYDYWGQGTQVTVSS; low polyreactivity
QVQLVESGGGLVQAGGSLRLSCAASGLTFSTNAMGWYRQAPGKEREFVAAISFNGGSTYYADSVKGRFTISRDNAKNTVYLQMNSLKPEDTAVYYWNAVKYRYLEYNYWGQGTQVTVSS; high polyreactivity
QVQLVESGGGLVQAGGSLRLSCAASRLIVYQNAMGWYRQAPGKEREFVAAISWSGGRTYYADSVKGRFTISRDNAKNTVYLQMNSLKPEDTAVYYCAARFTYYTYEFEYWGQGTQVTVSS; high polyreactivity
QVQLVESGGGLVQAGGSLRLSCAASGFIFVNYAMGWYRQAPGKERELVAAITRRGGRTYYADSVKGRFTISRDNAKNTVFLQINRLKPEDTAVYYCATENQSRTPEEDSWGQGTQVTVSS; high polyreactivity
QVQRVESGGGLVQAGGSRRLSCAASGNIFRRYTMGWYRQAPGKERELVAAISRRGGSTHYADSVKGRFTISRDNAKNTVYLQMNSLKPEDTAVYYCNAYLVYSYSPSHYYGFGYWGQGTQVTVSS; high polyreactivity
QVQLVESGGGLVQAGGSLSLSCAASGRTFDTYAMGWYRQAPGKERELVASITQSGGTTYYADSVKGRFTISRDNAKNTVYLQMNSLKPEDTAVYYCAARSYGSTSPIRVQLYYWGQGTQVTVSS; high polyreactivity

q: Consider the sequence QVQLVESGGGLVQAGGSLRLSCAASGFTIYWYAMGWYRQAPGKERELVAAITRSGSSTYYADSVKGRFTISRDNAKNTVYVQMNSLKPEDTAVYYSAALPYTPYYDAYDYWGQGTQVTVSS and give its measured polyreactivity (PSR sort gate).
a: high polyreactivity

q: Do the same for QVQLVESGGGLVQAGGSLRLSCAASGSTFRINTMGWYRQAPGKERELVATITGSGGSTYYADSVKGRFTISRDNAKNTVYLQMNSLKPEDTAVYYCAAVGDQNEYDYWGQGTQVTVSS please
a: low polyreactivity

q: Let us now turn to QVQLVESGGGLVQAGGSLRLSCAASGFIFWWYGMGWYRPAPGKEREFVAAITQSGSTYYADSVKGRFTISRDNAKNTVYLQMNSLKPEDTAVYYCADVVGRRLYPRYDYWGQGTQVTVSS
a: high polyreactivity

q: Next: QVQLVESGGGLVQAGGSLRLSCAASGYNFNYAMGWYRQAPGKERELVAAISRRGGSTYYADSVKGRFTISRDNAKNTVYLQMNSLTPEDTAVYYCAARLPGYFGIGDYWGQGTQVTVSS
a: high polyreactivity

Data provenance: the nanobody polyreactivity screen of Harvey et al. (2022)
